Source: PubChem BioAssay (NCI)

Quick list: growth per entry.
Tested on: ACHN renal
Test: NCI-60 one-dose screen, 48 h (100 = growth as untreated, 0 = no growth, -100 = all killed)
Conditions: 10 µM unless noted
Compounds without any hit were thinned out: in the full panel of roughly 83,000, 20% have a hit.
Use % as the unit, but write only the number.

Example results:
>  <Compound>
NC(=O)c1ccc[n+](CC(=O)N2CCN(c3cc4c(cc3F)c(=O)c(C(=O)O)cn4C3CC3)CC2)c1

>  <Tested target>
ACHN renal

>  <Measure name>
growth

>  <Unit symbol>
%

>  <Observed>
84.5

$$$$
>  <Compound>
C=CCn1c(SCC(=O)Nc2ccc(C(=O)/C=C/c3cc(OC)c(OC)c(OC)c3)cc2)nnc1-c1cc(-c2ccc(S(C)(=O)=O)cc2)nc2ccccc12

>  <Tested target>
ACHN renal

>  <Measure name>
growth

>  <Unit symbol>
%

>  <Observed>
91.9

$$$$
>  <Compound>
N#Cc1cc(-c2nc3ccccc3s2)c(=O)n(NS(=O)(=O)c2ccc(Cl)cc2)c1N

>  <Tested target>
ACHN renal

>  <Measure name>
growth

>  <Unit symbol>
%

>  <Observed>
95.5

$$$$
>  <Compound>
COC(=O)C(c1ccccc1)C(CC(=O)c1ccccc1)c1ccccc1 (stereo not drawn)

>  <Tested target>
ACHN renal

>  <Measure name>
growth

>  <Unit symbol>
%

>  <Observed>
86.6

$$$$
>  <Compound>
COc1cc(CNC(=O)CCCCC[P+](c2ccccc2)(c2ccccc2)c2ccccc2)c(OC)c2c1OCO2

>  <Tested target>
ACHN renal

>  <Measure name>
growth

>  <Unit symbol>
%

>  <Observed>
106

$$$$
>  <Compound>
O=S(=O)(NCCNc1nccc(-c2c(-c3ccc(F)c(O)c3)nc3occn23)n1)c1ccccc1

>  <Tested target>
ACHN renal

>  <Measure name>
growth

>  <Unit symbol>
%

>  <Observed>
33.9

$$$$
>  <Compound>
Fc1ccccc1CSc1ncnc2nc[nH]c12

>  <Tested target>
ACHN renal

>  <Measure name>
growth

>  <Unit symbol>
%

>  <Observed>
107

$$$$

Using the record for O=C(O)/C=C\C(=O)N1C/C(=C\c2ccccc2Cl)C(=O)/C(=C/c2ccccc2Cl)C1 , state its measured growth.
20.3
